# tested-target: Phosphatidylinositol 3,4,5-trisphosphate 5-phosphatase 2 (Rattus norvegicus, UniProt Q9WVR3)
# Sequence (Q9WVR3 whole entry): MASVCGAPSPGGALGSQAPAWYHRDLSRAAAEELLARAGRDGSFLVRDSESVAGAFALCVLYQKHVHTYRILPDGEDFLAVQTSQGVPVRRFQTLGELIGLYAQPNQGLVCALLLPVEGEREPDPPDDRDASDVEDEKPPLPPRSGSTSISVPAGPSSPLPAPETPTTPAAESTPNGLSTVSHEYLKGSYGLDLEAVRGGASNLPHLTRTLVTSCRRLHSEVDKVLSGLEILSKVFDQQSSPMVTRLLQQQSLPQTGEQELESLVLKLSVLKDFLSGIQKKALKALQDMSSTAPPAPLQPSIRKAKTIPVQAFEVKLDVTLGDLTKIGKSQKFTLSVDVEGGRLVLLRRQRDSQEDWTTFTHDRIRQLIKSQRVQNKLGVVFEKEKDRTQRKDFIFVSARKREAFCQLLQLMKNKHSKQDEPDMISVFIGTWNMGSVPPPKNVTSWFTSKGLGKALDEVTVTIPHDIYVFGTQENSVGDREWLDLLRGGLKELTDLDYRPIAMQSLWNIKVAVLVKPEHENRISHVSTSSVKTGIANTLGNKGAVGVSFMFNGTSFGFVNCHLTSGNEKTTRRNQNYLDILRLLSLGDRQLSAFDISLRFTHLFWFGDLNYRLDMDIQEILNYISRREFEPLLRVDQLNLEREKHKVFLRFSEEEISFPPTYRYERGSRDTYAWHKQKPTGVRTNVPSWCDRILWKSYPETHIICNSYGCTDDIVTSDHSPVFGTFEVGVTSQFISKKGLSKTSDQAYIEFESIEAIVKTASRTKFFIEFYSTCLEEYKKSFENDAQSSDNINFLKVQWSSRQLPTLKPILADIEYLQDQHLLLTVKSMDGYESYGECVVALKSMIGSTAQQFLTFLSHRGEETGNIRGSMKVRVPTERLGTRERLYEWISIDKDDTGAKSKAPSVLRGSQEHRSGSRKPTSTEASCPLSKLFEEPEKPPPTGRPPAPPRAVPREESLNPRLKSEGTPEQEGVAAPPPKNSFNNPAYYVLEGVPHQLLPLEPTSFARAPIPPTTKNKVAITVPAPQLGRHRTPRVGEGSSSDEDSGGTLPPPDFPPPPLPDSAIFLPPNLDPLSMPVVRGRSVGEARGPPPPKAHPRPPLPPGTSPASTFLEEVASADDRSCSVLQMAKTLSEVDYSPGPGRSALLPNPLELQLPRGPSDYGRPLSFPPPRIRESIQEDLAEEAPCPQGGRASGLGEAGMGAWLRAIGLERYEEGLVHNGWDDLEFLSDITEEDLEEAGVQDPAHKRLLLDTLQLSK
readout-name: Ki

Returns the measured Ki for the input compound. Input: "Oc1cc2c(cc1O)[C@@H]1c3ccccc3CN[C@@H]1CC2"
> 10 µM

---

# tested-target: Adenylate cyclase type 3 (Rattus norvegicus)
# Sequence (P21932 whole entry): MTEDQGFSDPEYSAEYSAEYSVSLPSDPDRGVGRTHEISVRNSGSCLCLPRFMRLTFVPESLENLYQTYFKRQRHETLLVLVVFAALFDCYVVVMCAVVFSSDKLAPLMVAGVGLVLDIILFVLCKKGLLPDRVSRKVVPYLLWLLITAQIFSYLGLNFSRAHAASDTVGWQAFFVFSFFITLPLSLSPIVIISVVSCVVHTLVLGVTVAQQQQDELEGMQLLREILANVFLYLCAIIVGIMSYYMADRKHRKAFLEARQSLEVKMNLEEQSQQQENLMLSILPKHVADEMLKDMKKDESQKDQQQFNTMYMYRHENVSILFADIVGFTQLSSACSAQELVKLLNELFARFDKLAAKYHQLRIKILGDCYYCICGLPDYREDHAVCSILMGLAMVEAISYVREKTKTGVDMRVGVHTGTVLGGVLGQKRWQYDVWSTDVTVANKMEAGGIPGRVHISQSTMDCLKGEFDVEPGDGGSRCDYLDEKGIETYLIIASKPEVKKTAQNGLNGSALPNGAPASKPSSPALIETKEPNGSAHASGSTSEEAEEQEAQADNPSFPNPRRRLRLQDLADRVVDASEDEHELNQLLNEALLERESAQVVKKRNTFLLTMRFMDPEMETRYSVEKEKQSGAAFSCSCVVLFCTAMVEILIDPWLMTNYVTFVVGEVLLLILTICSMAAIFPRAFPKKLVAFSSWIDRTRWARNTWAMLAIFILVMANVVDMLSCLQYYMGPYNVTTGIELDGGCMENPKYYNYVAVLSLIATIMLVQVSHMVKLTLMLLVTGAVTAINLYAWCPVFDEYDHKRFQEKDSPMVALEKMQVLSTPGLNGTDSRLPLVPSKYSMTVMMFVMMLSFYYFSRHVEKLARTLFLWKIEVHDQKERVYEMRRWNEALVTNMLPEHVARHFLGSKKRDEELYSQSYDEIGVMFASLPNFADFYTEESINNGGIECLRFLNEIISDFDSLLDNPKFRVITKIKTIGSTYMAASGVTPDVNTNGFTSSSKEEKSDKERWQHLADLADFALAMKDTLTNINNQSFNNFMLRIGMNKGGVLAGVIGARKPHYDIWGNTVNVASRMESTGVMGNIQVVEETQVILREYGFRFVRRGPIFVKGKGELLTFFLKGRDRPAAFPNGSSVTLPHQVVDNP
readout-name: Ki

So what Ki did "Oc1cc2c(cc1O)[C@@H]1c3ccccc3CN[C@@H]1CC2" get with Adenylate cyclase type 3 (Rattus norvegicus)?
> 10 µM
